Reported thermal shift delta Tm is given for each of the following compounds.
Test system: LOC_OS01G57100-cb003
Assay: thermal shift delta Tm vs DMSO control; higher = stronger stabilization (binding);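 also: purified Escherichia coli-expressed rice kinase domain construct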
Settings: 12.5 µM; protein concentration 2 µM
Entry rule: numbers only, all in °C.

Past entries and their recorded results:
- Compound: "CCS(=O)(=O)Nc1ccc2c(c1)/C(=C(/Nc1ccc(CN3CCCCC3)cc1)c1ccccc1)C(=O)N2"
  Readout Units: "°C"
  thermal shift delta Tm: 1.29
- Compound: "COc1ccc(-c2nc(N3CCOCC3)c3sc(CN(C)c4ncc(C(=O)NO)cn4)cc3n2)cn1"
  Readout Units: "°C"
  thermal shift delta Tm: 2.79
- Compound: "CC(C)CC(=O)Nc1n[nH]c2c1CN(C(=O)C1CCN(C)CC1)C2(C)C"
  Readout Units: "°C"
  thermal shift delta Tm: 1.01
- Compound: "N#Cc1cccc(-c2c[nH]c3ncnc(N4CCOCC4)c23)c1"
  Readout Units: "°C"
  thermal shift delta Tm: 1.38

Prompt: Tell me the measured thermal shift delta Tm of Cc1c[nH]c(/C=C2\C(=O)Nc3ccccc32)c1CCC(=O)O , please.
Completion: 0.49

Prompt: Dear colleague, I am looking for the recorded thermal shift delta Tm of the following compound: CCCCNc1ncc(C(=O)NCc2ccc(-n3ccnc3)cc2)c(NC2CCC(O)CC2)n1 (centres undefined)
Completion: 2

Prompt: Could you share which thermal shift delta Tm value was measured for O=c1ccc2ccc(O)c(O)c2o1 ?
Completion: 4.5

Prompt: # lookup: thermal shift delta Tm of N#CC(=C(/N)Sc1ccccc1N)/C(C#N)=C(\N)Sc1ccccc1N
Completion: -0.44

Prompt: # input compound: c1cn2cc(-c3ccc4cn[nH]c4c3)nc(Nc3ccc(N4CCOCC4)cc3)c2n1 ; wanted: its thermal shift delta Tm
Completion: 2.14

###

Listed here are molecules together with their documented thermal shift delta Tm.
Test system: LOC_OS01G51400-cb002
Assay: thermal shift delta Tm vs DMSO control; higher = stronger stabilization (binding)
Conditions: 12.5 µM; protein concentration 2 µM
Give just the numeric value; °C need not be written.

Example results:
- Molecule: "O=C1Nc2ccc(CN3C(=O)CSC3=O)cc2/C1=C/c1cc(CN2CCOCC2)c[nH]1"
  Reported Property: "thermal shift delta Tm"
  Readout Units: "°C"
  Measurement: 0.13
- Molecule: "NC(=O)c1cnc2[nH]ccc2c1N[C@@H]1[C@@H]2CC3C[C@H]1C[C@@](O)(C3)C2"
  Reported Property: "thermal shift delta Tm"
  Readout Units: "°C"
  Measurement: 0.18
- Molecule: "COc1cc(Nc2ncc(F)c(Nc3ccc4c(n3)N(COP(=O)(O)O)C(=O)C(C)(C)O4)n2)cc(OC)c1OC [R788 (Fostamatinib) Disodium]"
  Reported Property: "thermal shift delta Tm"
  Readout Units: "°C"
  Measurement: 0.49

Now let's try a different one.
Prompt: Fill in the blank: the reported thermal shift delta Tm of C[C@@H]1COCCN1c1cc(=O)n2c(n1)N(Cc1cncc(Cl)c1)[C@H](C(F)(F)F)CC2 is ____.
Completion: 0.31

###

Test system: LOC_OS01G52050-cb004
Sequence (as listed by the source): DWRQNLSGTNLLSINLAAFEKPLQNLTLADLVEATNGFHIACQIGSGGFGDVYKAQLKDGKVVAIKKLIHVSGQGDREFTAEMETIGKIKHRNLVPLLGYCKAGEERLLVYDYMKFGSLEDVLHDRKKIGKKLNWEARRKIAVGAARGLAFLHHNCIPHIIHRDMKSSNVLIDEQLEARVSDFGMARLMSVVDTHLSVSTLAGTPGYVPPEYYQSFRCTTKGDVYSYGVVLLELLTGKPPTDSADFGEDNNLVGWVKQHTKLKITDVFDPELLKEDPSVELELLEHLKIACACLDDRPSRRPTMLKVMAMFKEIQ
Experiment: thermal shift delta Tm vs DMSO control; higher = stronger stabilization (binding)
Conditions: 12.5 µM; protein concentration 2 µM
thermal shift delta Tm of 1 °C or higher: label 1. Under 1 °C: label 0.

Reference set (3 entries):
- Molecule: "Clc1ccc(C2(c3ccc(-c4cn[nH]c4)cc3)CCNCC2)cc1"
  Assayed Target: "LOC_OS01G52050-cb004"
  Class: "label 0"
- Molecule: "C[C@H](CN(C)C)Oc1nc(Nc2cc3cccc(Cl)c3cn2)cnc1C#N"
  Assayed Target: "LOC_OS01G52050-cb004"
  Class: "label 1"
- Molecule: "CCN1CCN(Cc2ccc(C(=O)Nc3ccc(C)c(Oc4ccc5c(c4)CC(=O)N5)c3)cc2C(F)(F)F)CC1"
  Assayed Target: "LOC_OS01G52050-cb004"
  Class: "label 1"

Shift focus to the following entry.
Prompt: I'd appreciate it if you could say whether CC[C@@H](N)CNc1ccnc(-c2cc(-c3cnn(C)c3)ccc2O)n1 has thermal shift delta Tm at least equal to 1 °C.
Completion: label 1

###

Tested on: LOC_OS05G28520-cb001
Experiment: thermal shift delta Tm vs DMSO control; higher = stronger stabilization (binding)
Conditions: 12.5 µM; protein concentration 2 µM
Record label 1 whenever thermal shift delta Tm is at 0.6 °C or higher; record label 0 when lower.

Use the examples below as a reference point.
- Molecule: "CN1CCC(Nc2nc(Nc3ccc(Oc4ccccc4)cc3)c3c(=O)[nH]cc(Br)c3n2)CC1"
  Assayed Target: "LOC_OS05G28520-cb001"
  Class: "label 1"
- Molecule: "CCCNC(=O)c1cn2ncnc(Nc3cc(C(=O)NC4CC4)ccc3C)c2c1C"
  Assayed Target: "LOC_OS05G28520-cb001"
  Class: "label 0"
- Molecule: "Cc1cn(-c2cc(NC(=O)c3ccc(C)c(Nc4nccc(-c5cnccn5)n4)c3)cc(C(F)(F)F)c2)cn1"
  Assayed Target: "LOC_OS05G28520-cb001"
  Class: "label 0"
- Molecule: "Cn1cc(-c2ccc3c(c2)CCN3C(=O)Cc2cccc(C(F)(F)F)c2)c2c(N)ncnc21"
  Assayed Target: "LOC_OS05G28520-cb001"
  Class: "label 0"

Prompt: # check: thermal shift delta Tm of C[C@@H]1COC(Nc2ccc3ncnc(Nc4ccc(OCc5nccs5)c(Cl)c4)c3c2)=N1 is greater than or equal to 0.6 °C
Completion: label 0

Prompt: Please tell me: is the molecule Cc1cc(C(=O)NOCCO)c(Nc2ccc(I)cc2F)n(C)c1=O at or over 0.6 °C in terms of thermal shift delta Tm?
Completion: label 0

Prompt: Identify whether the reported thermal shift delta Tm of the following molecule is 0.6 °C or greater: COc1nccnc1NS(=O)(=O)c1ccc(NC(=O)/C=C/c2ccc([N+](=O)[O-])s2)cc1 [Necrosulfonamide]
Completion: label 0

Prompt: Has C[C@]1(O)C[C@@H](c2nc(-c3ccc4ccc(-c5ccccc5)nc4c3)c3c(N)nccn32)C1 a recorded thermal shift delta Tm greater than or equal to 0.6 °C?
Completion: label 1

Prompt: Given the entry CN1CCN(c2ccc3nc(-c4c(N)c5c(F)cccc5[nH]c4=O)[nH]c3c2)CC1 [Dovitinib (TKI258) Lactate] , answer whether its thermal shift delta Tm meets or surpasses 0.6 °C.
Completion: label 1

Prompt: Test whether the molecule Cc1cc(Nc2cc(Cl)nc(Oc3ccc([N+](=O)[O-])cc3)n2)n[nH]1 records thermal shift delta Tm of 0.6 °C or higher.
Completion: label 0

Prompt: Could you verify whether the entry Cc1cc2c(F)c(Oc3ncnn4cc(OC[C@@H](C)O)c(C)c34)ccc2[nH]1 shows thermal shift delta Tm of no less than 0.6 °C?
Completion: label 1

Prompt: Decide: is the reported value of thermal shift delta Tm for COc1cc(N2CCN(C)CC2)ccc1Nc1ncc2c(n1)N(C)c1ccccc1C(=O)N2 equal to or greater than 0.6 °C?
Completion: label 0

Prompt: Please tell me: is the molecule CC(C)S(=O)(=O)c1ccc2nccc(Nc3ccc4scnc4c3)c2c1 at or over 0.6 °C in terms of thermal shift delta Tm?
Completion: label 0

Prompt: Is it the case that CC(C)(C)c1cc(NC(=O)Nc2ccc(-c3cn4c(n3)sc3cc(OCCN5CCOCC5)ccc34)cc2)no1 has thermal shift delta Tm reaching or exceeding 0.6 °C?
Completion: label 0

Prompt: Quick check, thermal shift delta Tm >= 0.6 °C? COc1cc2ncnc(Sc3nnc(C)s3)c2cc1OC
Completion: label 0

Prompt: Hello, I need to know if O=C1NC(=O)C(c2cnc3ccccn23)=C1c1cn2c3c(cc(F)cc13)CN(C(=O)N1CCCCC1)CC2 has measured thermal shift delta Tm not below 0.6 °C. Thanks!
Completion: label 1

Prompt: hey, is thermal shift delta Tm for this one >= 0.6 °C? O=C(NC(NC(=S)Nc1ccc(F)c([N+](=O)[O-])c1)C(Cl)(Cl)Cl)C(c1ccccc1)c1ccccc1 (stereo not drawn)
Completion: label 1

Prompt: Can COc1cc(Nc2ncc(F)c(Nc3ccc4c(n3)N(COP(=O)(O)O)C(=O)C(C)(C)O4)n2)cc(OC)c1OC [Fostamatinib (R788)] be said to have thermal shift delta Tm at or above 0.6 °C?
Completion: label 0

Prompt: Please indicate if the recorded thermal shift delta Tm for Cc1ccc(C(=O)Nc2cccc(C(F)(F)F)c2)cc1Nc1nc(-c2cccnc2)nc2c1cnn2C meets or exceeds 0.6 °C.
Completion: label 0

Prompt: Could you tell me if the measured thermal shift delta Tm of CCN1CCN(Cc2ccc(-c3cc4c(N[C@H](C)c5ccccc5)ncnc4[nH]3)cc2)CC1 reaches 0.6 °C or more?
Completion: label 1

Prompt: State whether the measured thermal shift delta Tm reaches 0.6 °C, counting equality as reaching it, for CNS(=O)(=O)C[C@H]1CC[C@H](N(C)c2[nH]cnc3nccc2-3)CC1
Completion: label 0

Prompt: Assess whether reported thermal shift delta Tm for CCC(=O)Nc1cccc(Oc2nc(Nc3ccc(N4CCN(C)CC4)cc3OC)ncc2Cl)c1 sits at 0.6 °C or higher.
Completion: label 1

Prompt: Does thermal shift delta Tm meet or surpass 0.6 °C for CN1CC[C@H](c2c(O)cc(O)c3c(=O)cc(-c4ccccc4Cl)oc23)[C@H](O)C1 [Flavopiridol (Alvocidib)] ?
Completion: label 0
